# Test system: MS2 coat protein
# PROCEDURE TEXT: apparent KD of MS2 coat protein; designed switch direction (-1 OFF switch, 1 ON switch): 1; higher = weaker reporter binding
# MEASUREMENT PARAMETERS: input ligand: microRNA oligo, concentration not stated
# apparent KD of MS2 coat protein per entry
Respond with a number, then the unit of measure.

// solved cases for apparent KD of MS2 coat protein follow
CONSTRUCT SEQUENCE | MEASURE | RESULT
AAGGGCGGAAACAACAUGAGGAUCACCCAUGUUGCCGAAAGGCAGGAUAUCCGGCGAAAGCAGAAGGAGAAGGGUCAAGAACCA [AK SSNG3-V2-42.1] (Eterna round: R96, puzzle: Same State NG 3) | apparent KD of MS2 coat protein | 16 nM
UUGUUUUGAAAUUAACAUGAGGAUCACCCAUGUCGUGAGACAGAGGAUAUACAGGAAUGUAGGUAGUAGAAGGCUGUUUAGUGU [JR_SSNG3_Sub099] (Eterna round: R96, puzzle: Same State NG 3) | apparent KD of MS2 coat protein | 95.6 nM
GAGGAACAGGCCAACAUGAGGAUCACCCAUGUCCUCGCACUUCAGGAUAUCUGGAGGAAGAAGAAAGAGAAGGGAAGGUGAAGC [AK SSNG3-V2-34.2] (Eterna round: R96, puzzle: Same State NG 3) | apparent KD of MS2 coat protein | 30.1 nM

# evaluate next
Look up apparent KD of MS2 coat protein of CGAGAGUGCGUAGGAUAUCCGAAAGGAAGUGUAGGAGAAGGGCGGAACGCUCAUCGAAAACAUGAGGAUCACCCAUGUACAAAU [PowerStrip SSNG 1.17] (Eterna round: R96, puzzle: Same State NG 1) and report it.
62.7 nM

----------
# System: MS2 coat protein
# PROCEDURE TEXT: apparent KD of MS2 coat protein; designed switch direction (-1 OFF switch, 1 ON switch): -1; higher = weaker reporter binding
# MEASUREMENT PARAMETERS: input ligand: none
Given measured apparent KD of MS2 coat protein, output Condition met if it is greater than or equal to 20 nM and Condition not met if not.

Worked examples follow.
CONSTRUCT SEQUENCE | CATEGORY
CAAUAGCGAGGAUAUACAUGAGGAUCACCCAUGUGAUCCUUAGGCUGUUGAAGCCUAUGUAGAAGGCGCAAAUU [jl-ex3.4.57 ViennaUCT mod] (Eterna round: R97, puzzle: Exclusion 3) | Condition met
GGAAGGCGAGGAUAUACAAUAAAGAAAGCGAAAGACAUGAAACAUGAGGAUCACCCAUGUAGAAGGCGCGGAGA [AK-MS2ROC-r4-exclusion2-9] (Eterna round: R97, puzzle: Exclusion 2) | Condition not met
UAAGUUCAGUAGGAUAUUCAGCAGCUGCUGCUAGGAGAAGGGCUGACAUGAGGAUCACCCAUGUGAGUGUCCGU [Eternabot (L2) Solution 55] (Eterna round: R97, puzzle: Exclusion 6) | Condition met
CGCUGGACAGGAUAUGUUCUUGGGCACUUGAGGAUCACCCAAGUCAUCAAGAACUCAGGCACAGAAGGGUUUAUGG [salish99_ex5_r4_018] (Eterna round: R97, puzzle: Exclusion 5) | Condition not met

Switching to the query record.
Determine whether measured apparent KD of MS2 coat protein meets or exceeds 20 nM for AAAACUGCCUAGGAUAUCUGAAGCCGAGGUAGAAGAGAAGGAGGCACAUGAGGAUCACCCAUGUCCCUCAUAAA [EX6 A.8] (Eterna round: R97, puzzle: Exclusion 6)
Condition not met

----------
# Tested on: MS2 coat protein
# PROCEDURE TEXT: apparent KD of MS2 coat protein; higher = weaker reporter binding
# MEASUREMENT PARAMETERS: Eterna round: R107; input ligand: theophylline 20 uM
# apparent KD of MS2 coat protein per entry
Use nM as the unit, but write only the number.

// solved cases for apparent KD of MS2 coat protein follow
CONSTRUCT SEQUENCE | MEASURE | MEASURED NUMBER
AAUACAUGAGGAUCACCCAUGUAAGCUGAAGGAGCGCUGGAAACAGCAGGUAGGUCGCAGCUGCGACCUUGGUGAUCUAGGUCGC [(M1)-(M2)-(Arg1)-(Arg2)-(A)'-(M)'-(A)''_Design7] | apparent KD of MS2 coat protein | 35.8
GUAGCGACGGCGGCCGCCACUCGCACGUGAGGGUAGACCAACCUUCACAUGAGGAUCACCCAUGUGAGGACCGGGCUGUCGCUAC [#15 Exclusion Tryptophan B] | apparent KD of MS2 coat protein | 30.4
UGUAUGUGAUUUGAUACCAGACCAGCUGGUGGUCCAUGAGGAACACCCAUGGAGGUUUGGGUCCCUUGGCAGCAAAUCGCAUACU [SS Theo B #24 Ms20] | apparent KD of MS2 coat protein | 130

# evaluate next
Look up apparent KD of MS2 coat protein of GCACAAGAUGGAAGGAGCGCUGGUAAAAGUCACAUGAGGAUCACCCAUGUGCUCCUUGCCGAGCAGGUAGGUCGCCAUCUUGUGC [SSAB NP+V+V2 #4] and report it.
31.8

----------
# apparent KD of K4 kissing-loop reporter per entry
# System: K4 kissing-loop RNA reporter;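 note: bound reporter read as fluorescence of individual clusters on recovered sequencing chips by microscopy, with normalized cluster intensities fitted with a binding model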
# PROCEDURE TEXT: apparent KD of K4 kissing-loop reporter; higher = weaker reporter binding
# MEASUREMENT PARAMETERS: Eterna round: R107; input ligand: arginine 13.2 mM
Use nM as the unit, but write only the number.

CONSTRUCT SEQUENCE | MEASURED NUMBER
CCCGGUCCACGAAGGAGCGCCGUGCAGUGAUGUUGCAGUUAGAUCCAGUGAUGUUUGGGCCGGCAGGUAGGUCGCGUGGCCCGGG [Excusion Arginine B GF 24] | 197
AUUCAUUUCAGAGGAUAUCGAUGGAGAGUGAUGUUCUCCCAUAGCCAGUGAUGUUGGCUAGCUAUUCGAGAAGGCUGUGGGUGGA [Same State FMN B GF 27] | 227
ACGAUCAUGUCGGCCGCCACUGAGAGUAGUGAUGUUACUUUUAUGUUUUAGUUAUAAUAUUUGAACAGGACCGGGACAUGUUCGU [JR_ExcTryptoB_Sub023] | 84.8
AGGAUGUAGUGAUGUUAUAUAAGAAGUAGACGAGGACCGGUACGGCCGCCACUCGAAACGGCUACUAGCGCGUUGCGAGGUGUGC [ExTryptoA.Cg] | 435
GCAGUGAUGUUGCGCGGGUACAGUGGAGUGCGAGGACCGGUACGGCCGCCACUCGUACAGAACUGGCUAAUAUAUGGAUAGGUGA [VII] | 169

Look up apparent KD of K4 kissing-loop reporter of UGUAUGUGAUUUGAUACCAGACCAGGUGGAGGAAUCUGAGUGAUGUUCAGGUAGGUUUGGGUCCCUUGGCAGCAAAUCGCAUACU [KL-SSTheoB18] and report it.
136

Look up apparent KD of K4 kissing-loop reporter of AUUGUACAAGUGAUGUUUGUUUUUUCCGAAGGAGCGUCUAAUAAGACAGGUAGGUCGCGGAUUCUCUUAAUAAUCAGGUCAUUAA [JR_Nu_ExcArginiA_Sub020] and report it.
275

Look up apparent KD of K4 kissing-loop reporter of AUUUUUUUGUCAGGAUAUUAGUAUGCGUUUGGUUUGUUAGUGAUGUUGAUAUUUUGUUUAUGUAUUUAAGAAGGGAUUUAGCGGU [yyitemullin] and report it.
348

Look up apparent KD of K4 kissing-loop reporter of "GCGUUCAUGGCAGGAUAUAGGUAAAGGAGUGAUGUUCCUUAUGUUGCAUUUACUUAAUCCAACUCCCUAGAAGGGCCAUGAACGC" and report it.
140

Look up apparent KD of K4 kissing-loop reporter of UAUUUGAUGUCAGGAUAUCGUAUACGAGUGAUGUUCGUAUUUCUACUAUAGAUUAUUUAAAUUUUUCGAGAAGGGACAACAUUUA [#04 K4 FMN B Same State] and report it.
93.3

Look up apparent KD of K4 kissing-loop reporter of UUUAUAAGGUCGGCCGCCACUGGAUUUAUGUUUGUUUCGUCUGGAUCAAAGUGAUGUUUUGAGUCCAGGACCGGGACAUUUGUUA [whbob_Ex_Tryp_B_w39] and report it.
76.5

Look up apparent KD of K4 kissing-loop reporter of ACGUAGUUCUAGGAUACCAGCCAAGGACGCCAGGACAAAAGUCCUGGCGCCAGUGAUGUUGGCCCUUGGCAGCCUAGAACUACGA [Omei KL Theo B Exc B v5] and report it.
168

Look up apparent KD of K4 kissing-loop reporter of UGACUACAUCCUAGUGAUGUUUAGGAUAUGUAGGAUAUGCUGAUAAGCAGAAGGACAGAAGGAAGUGAUGUUCUUAAAGUAGUCU [FmnAX 29 #DoubleAptamer #Double K4 #SwitchBubble #StaticStem] and report it.
783
